target: Cytochrome P450 1A2 (Homo sapiens) (UniProt P05177); experiment: p450-cyp1a2 (AID 410); conditions: recombinant CYP1A2, luciferin-ME demethylation, luminescence; series mostly up to 57 µM
Sequence (P05177 whole entry, looked up): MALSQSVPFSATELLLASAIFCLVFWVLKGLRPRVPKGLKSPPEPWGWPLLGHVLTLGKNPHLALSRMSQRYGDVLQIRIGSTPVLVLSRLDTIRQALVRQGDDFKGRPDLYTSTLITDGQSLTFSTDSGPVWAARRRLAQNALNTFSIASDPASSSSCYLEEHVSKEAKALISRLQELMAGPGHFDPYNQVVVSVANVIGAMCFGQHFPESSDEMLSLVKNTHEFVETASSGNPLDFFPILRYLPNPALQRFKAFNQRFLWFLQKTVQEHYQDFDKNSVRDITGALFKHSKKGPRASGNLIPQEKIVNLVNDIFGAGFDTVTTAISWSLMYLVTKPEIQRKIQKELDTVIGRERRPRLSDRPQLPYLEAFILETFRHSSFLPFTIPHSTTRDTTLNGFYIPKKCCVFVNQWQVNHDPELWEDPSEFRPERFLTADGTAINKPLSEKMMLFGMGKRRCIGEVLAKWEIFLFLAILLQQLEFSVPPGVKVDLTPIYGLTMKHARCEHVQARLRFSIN
Inconclusive results are not listed. The source made the active and inactive calls. Calls come from the whole dose curve.
Entry note: the call must match one of active, inactive

Status in this test for C=CCN1CC[C@@]23c4c5ccc(O)c4O[C@H]2/C(=N\N=C2/CC[C@@]4(O)[C@H]6Cc7ccc(O)c8c7[C@@]4(CCN6CC=C)[C@@H]2O8)CC[C@]3(O)[C@@H]1C5 ?
inactive

Status in this test for COc1ccc(C[C@H]2NC[C@H](O)[C@@H]2OC(C)=O)cc1 ?
inactive

Status in this test for COc1cc(CCN)ccc1O ?
inactive

Status in this test for Clc1cncc(N2CCNCC2)n1 ?
active

Status in this test for CNCC/C=C\c1cccnc1 ?
inactive

Status in this test for NC[C@H](CP(=O)(O)O)c1ccc(Cl)cc1 ?
inactive

Status in this test for C(=C/c1ccccc1)/CN1CCN(CCOC(c2ccccc2)c2ccccc2)CC1 ?
active

Status in this test for O=C1C2CCN(CC2)C1(CO)CO ?
inactive

Status in this test for CCN(CC)CCO[C@H]1CC[C@@]2(C)C(=CC[C@@H]3[C@H]2CC[C@]2(C)C(=O)CC[C@H]32)C1 ?
inactive

Status in this test for COc1cccc2c1cc([N+](=O)[O-])c1c(C(=O)O)cc3c(c12)OCO3 ?
active

Status in this test for CCC[C@@H]1CC2=CC(=O)CC[C@]2(C)[C@@H]2CC[C@@]3(C)[C@H](CC[C@]3(O)CCC(=O)O)[C@H]12 ?
inactive

Status in this test for Cc1o[nH]c(=O)c1C[C@@H](N)C(=O)O ?
inactive

Status in this test for Cc1cccc([C@H](C)c2cnc[nH]2)c1C ?
active

Status in this test for NC[C@@H](CC(=O)O)c1ccc(Cl)cc1 ?
inactive

Status in this test for CN(C(=O)Cc1ccc(Cl)c(Cl)c1)[C@@H](CN1CCCC1)c1cccc(OCC(=O)O)c1 ?
inactive

Status in this test for CC(=O)O[C@@H]1CN2CCC1CC2 ?
inactive

Status in this test for Clc1ccc(C2=CCC[C@H]3CC[C@@H]2N3)cn1 ?
active

Status in this test for c1ccc(CCCCN2CCC(c3ccccc3)CC2)cc1 ?
active

Status in this test for CN1C(=O)CCS(=O)(=O)[C@H]1c1ccc(Cl)cc1 ?
inactive

====

assay: qHTS for Inhibitors of the Functional Ribonucleoprotein Complex (vRNP) of Lymphocytic Choriomeningitis Arenaviruses (LCMV): Viability assay - alamar blue signal for LCMV Primary Screen (AID 1347085); conditions: alamar blue viability counter-screen, LCMV vRNP screen cells; series mostly up to 57.5 µM; note: nearly all actives have a fitted effect of over 80% in size
Inconclusive results are not listed. Active and inactive are the calls of the source. The call rests on the fitted dose curve; tested in HEK293 reporter line.
measuredEndpoint: outcome

Some solved entries appear below for comparison.
smilesRepr | outcome
CON=C(C(=O)N[C@@H]1C(=O)N2C(C(=O)OCOC(=O)C(C)(C)C)=C(C=Cc3scnc3C)CS[C@H]12)c1csc(N)n1 | inactive
O=C(O)COc1ccc(Cl)cc1CO | inactive
N=C(N)SCCN | inactive
N[C@H](C(=O)O)[C@H]1C[C@@H]1C(=O)O | inactive
N#C/C(=C\c1ccc(O)c(O)c1)C(=O)Nc1ccccc1 | inactive

Now for another entry.
Dear colleague, I am looking for the recorded outcome of the following compound: COc1cc(OC)c2c(=O)cc(-c3ccccc3)oc2c1
inactive

====

experiment: qHTS for Inhibitors of the Functional Ribonucleoprotein Complex (vRNP) of Lymphocytic Choriomeningitis Arenaviruses (LCMV): Viability assay - alamar blue signal for LCMV Primary Screen (AID 1347085); settings: alamar blue viability counter-screen, LCMV vRNP screen cells; series mostly up to 57.5 µM; note: nearly all actives have a fitted effect of over 80% in size
Results filed as inconclusive are left out. The source made the active and inactive calls. The call rests on the fitted dose curve; tested in HEK293 reporter line.
Entry note: the call must match one of active, inactive

Status in this test for Nc1ccc(C(=O)Nc2cccc(-c3nc(N4CCOCC4)c4oc5ncccc5c4n3)c2)cn1 ?
active

Status in this test for CCCCCCCCCCCC(=O)OCC ?
inactive

Status in this test for Cc1c(O)c2ccccc2oc1=O ?
inactive

Status in this test for C=CCCC[C@@H]1OC(=O)CNC(=O)C([C@@H](C)CC)NC(=O)[C@@H]2CCCN2C(=O)C([C@@H](C)CC)OC(=O)[C@H](Cc2ccccc2)N(C)C(=O)[C@H](C(C)C)NC(=O)C1(C)C (stereo not given in full) ?
inactive

Status in this test for CC1CCN=C(N)S1 (stereo not given) ?
inactive

Status in this test for Nc1ncnc2c1nc(Cl)n2[C@@H]1O[C@H](CO)[C@@H](O)[C@@H]1O ?
inactive

Status in this test for CNc1cc(NS(=O)(=O)c2ccc(N)cc2)nc(NC)n1 ?
inactive

Status in this test for CNCCNS(=O)(=O)c1cccc2cnccc12 ?
inactive

Status in this test for CC(O)[C@H]1CC[C@H]2[C@@H]3CC[C@@H]4C[C@@H](O)CC[C@]4(C)[C@H]3CC[C@]12C (stereo not given in full) ?
inactive

Status in this test for O=C(O)C1CN(CCCP(=O)(O)O)CCN1 (stereo not given) ?
inactive

Status in this test for COc1ccc2c(Oc3ccc(NC(=O)c4c(C)n(CC(C)(C)O)n(-c5ccccc5)c4=O)cc3F)ccnc2c1 ?
inactive

Status in this test for C=C1c2cccc(O)c2C(O)=C2C(=O)[C@@]3(O)C(O)=C(C(N)=O)C(=O)[C@@H](N(C)C)[C@@H]3[C@@H](O)[C@H]12 ?
inactive

Status in this test for COC(=O)C1=CO[C@@H](C)[C@@H]2CN3CC[C@@]4(C(=O)Nc5ccccc54)[C@@H]3C[C@H]12 ?
inactive

Status in this test for O=C(O)C1=CCCNC1 ?
inactive

Status in this test for COc1cc(Nc2nc3ccccc3nc2NS(=O)(=O)c2ccc(NC(=O)c3ccc(C)c(OC)c3)cc2)cc(OC)c1 ?
active

Status in this test for O=C(O)Cc1ccc(O)c(O)c1 ?
inactive

Status in this test for C=C(C)C1CCC(C)(O)CC1 (stereo not given) ?
inactive

Status in this test for CC(C)COC(=O)OCN1C(=O)CN(CCN2CC(=O)N(COC(=O)OCC(C)C)C(=O)C2)CC1=O ?
inactive

Status in this test for CCCC1(C)C(C#N)(C#N)C1(C#N)C#N ?
inactive

Status in this test for CCC1(O)CC2CN(CCc3c([nH]c4ccccc34)[C@@](C(=O)OC)(c3cc4c(cc3OC)N(C)C3[C@]45CCN4CC=C[C@@](CC)([C@@H](OC(C)=O)[C@]3(O)C(=O)OC)[C@H]45)C2)C1 (stereo not given in full) ?
active

Status in this test for Cc1ncsc1CCO ?
inactive

Status in this test for COc1ccc2c(c1)CCC1C2CC[C@@]2(C)C1CC[C@@H]2NCCCCCCN1C(=O)CCC1=O (stereo not given in full) ?
inactive

Status in this test for CC1(C)OC1COc1c2occc2cc2ccc(=O)oc12 (stereo not given) ?
inactive

Status in this test for CCCCCCCCCCCC(=O)OCC(O)CO (stereo not given) ?
inactive

Status in this test for C=C(C)C(COc1c2occc2cc2ccc(=O)oc12)OC(C)(C)C(O)COc1c2occc2cc2ccc(=O)oc12 (stereo not given) ?
inactive

Status in this test for O=C1CCc2ccccc2O1 ?
inactive

Status in this test for Cc1cccc(C(=O)NCN2CCN(c3ccccc3C#N)CC2)c1 ?
inactive

Status in this test for COc1cc2nc(N3CCN(C(=O)OCc4ccccc4)C(C(=O)NC(C)(C)C)C3)nc(N)c2cc1OC (stereo not given) ?
inactive

Status in this test for CCCC/C=C\CCCCCCCCCC=O ?
inactive

Status in this test for C[C@H]1C[C@H]2[C@@H]3CCC4=CC(=O)C=C[C@]4(C)[C@@H]3C(=O)C[C@]2(C)[C@@]1(O)C(=O)CO ?
inactive

Status in this test for NC(=O)Nc1sc(-c2ccc(F)cc2)cc1C(N)=O ?
active

Status in this test for COc1cc2c(cc1OC)[C@@H]1Cc3cc4c(cc3[C@H](C2)N1C)OCO4 ?
inactive

Status in this test for CN(C)CCOc1cc(-c2cn[nH]c2)ccc1NC(=O)C1COc2ccccc2O1 (stereo not given) ?
active

Status in this test for Cc1ccccc1CNc1ncnc2c1ncn2C1OC(CO)C(O)C1O (stereo not given) ?
inactive

Status in this test for COc1cc2ncnc(Nc3cc(Br)c(O)c(Br)c3)c2cc1OC ?
active

Status in this test for CN[C@@H]1C[C@H]2O[C@@](C)([C@H]1OC)n1c3ccccc3c3c4c(c5c6ccccc6n2c5c31)C(=O)N[C@H]4O ?
active

Status in this test for COc1ccc(C2CC(c3ccccc3)=NN2c2ccc(S(N)(=O)=O)cc2)cc1 (stereo not given) ?
inactive

Status in this test for C=C(CC[C@@H](O)C(C)(C)O)[C@H]1CC[C@]2(C)[C@@H]1CCC1[C@@]3(C)CC[C@H](O)C(C)(C)C3CC[C@]12C (stereo not given in full) ?
inactive

Status in this test for CO[C@@H]1[C@H](OC(=O)/C=C/C=C/C=C/C=C/C(=O)O)CC[C@]2(CO2)[C@H]1[C@@]1(C)O[C@@H]1CC=C(C)C ?
inactive

Status in this test for C[C@@]1(c2cc(-c3cncnc3)c(F)cc2F)CCSC(N)=N1 ?
active
